tgt: Protein kinase C gamma type (Homo sapiens)
condition.label: at 10 µM
Below, each entry is listed with its recorded residual activity.
# output: bare number, implied unit %

>>> recorded_measurement("CC#CC(=O)Nc1cc2c(Nc3ccc(F)c(Cl)c3)ncnc2cn1")
105
>>> recorded_measurement("O=C1NC(=O)c2c1c1c3ccccc3[nH]c1c1[nH]c3cc(Br)ccc3c21")
100
>>> recorded_measurement("CO[C@H]1[C@@H](OC)C[C@H](C)[C@@H](OC)C2=CC(=O)C=C(NC(=O)/C(C)=C/C=C/[C@H](OC)[C@@H](OC(N)=O)/C(C)=C/[C@@H]1C)C2=O")
99
>>> recorded_measurement("O=Nc1c(-c2c(O)[nH]c3ccccc23)[nH]c2ccccc12")
73
>>> recorded_measurement("O=c1c2ccccc2[nH]c(=S)n1CCN1CCC(=C(c2ccc(F)cc2)c2ccc(F)cc2)CC1")
117

Q: Could you share what residual activity was measured for Cc1nc2cc3nc(-c4cccs4)cnc3cc2n1C , tested on Protein kinase C gamma type (Homo sapiens)?
Ans: 104

Q: Form entry - test system: Protein kinase C gamma type (Homo sapiens); read-out: residual activity; compound: N#CC(C#N)=C(N)/C(C#N)=C/c1ccc(O)cc1
Ans: 79

Q: # query: residual activity | item COc1ccc(S(=O)(=O)N(CCO)c2ccccc2CN(C)C/C=C/c2ccc(Cl)cc2)cc1 | system: Protein kinase C gamma type (Homo sapiens)
Ans: 104

Q: Query for Protein kinase C gamma type (Homo sapiens): what residual activity does the record show for Ic1cccc(CSc2nnc(-c3ccncc3)o2)c1 ?
Ans: 104

Q: Form field - read-out: residual activity; system: Protein kinase C gamma type (Homo sapiens); submitted item: CCOc1cc2ncnc(Nc3cccc(Br)c3)c2cc1OCC
Ans: 112

Q: Which residual activity is reported with Protein kinase C gamma type (Homo sapiens) for this entry: Oc1ccc(-c2nc(-c3ccc(F)cc3)c(-c3ccncc3)[nH]2)cc1 ?
Ans: 103

Q: I'm curious: which residual activity was measured for Cc1ccc(S(=O)(=O)/C=C/C#N)cc1 tested on Protein kinase C gamma type (Homo sapiens)?
Ans: 87

Q: // lookup residual activity | system=Protein kinase C gamma type (Homo sapiens) | key= COc1ccc(OC)c2c(=S)c3ccccc3[nH]c12
Ans: 91

Q: Request - read-out residual activity | tested on Protein kinase C gamma type (Homo sapiens) | compound CN(C)c1ccc(/C=C2\C(=O)Nc3ccccc32)cc1
Ans: 102

Q: Entry O=C1NC(=O)/C(=C\c2ccc3nccnc3c2)S1 , system Protein kinase C gamma type (Homo sapiens): what residual activity was measured?
Ans: 83

====

# residual activity per entry
tgt: Fibroblast growth factor receptor 2 (Homo sapiens)
condition.label: at 1 µM
Only the number, expressed in %, is required.

Example results:
>>> recorded_measurement("O=C1Nc2ccccc2/C1=C1/Nc2ccccc2/C1=N\\OCCC(O)CO (stereo unspecified)")
20
>>> recorded_measurement("COc1cccc(-c2cc(=O)c3ccccc3o2)c1N")
102
>>> recorded_measurement("COc1cc2ncnc(Nc3ccc(O)c(Br)c3)c2cc1OC")
94
>>> recorded_measurement("c1ccc(-c2n[nH]cc2-c2ccnc3ccccc23)nc1")
101
>>> recorded_measurement("O=[N+]([O-])c1ccc(-c2nc(-c3ccc(F)cc3)c(-c3ccncc3)[nH]2)cc1")
112

# input for lookup
Q: // lookup residual activity for COc1cc2ncnc(Nc3ccc(Oc4ccccc4)cc3)c2cc1OC
Ans: 65
